# measurementDescription: activity coefficient (dimensionless); of the first substance listed, at infinite dilution; xn = mol fraction of the nth substance listed
# testConditions: 343.15 K; Liquid; Chromatography; x1 = 0
valueKind: activity coefficient

## Input Using the record for ClCCl [dichloromethane] + CCn1cc[n+](C)c1.N#CN=C=[N-] , report its activity coefficient.
## Output 0.78

## Input Using the record for CCCCCC [hexane] + CCn1cc[n+](C)c1.N#CN=C=[N-] , report its activity coefficient.
## Output 89.5

## Input Using the record for CC(C)CO [2-methyl-1-propanol] + CCn1cc[n+](C)c1.N#CN=C=[N-] , report its activity coefficient.
## Output 1.33

## Input Using the record for CCCCCCC [heptane] + CCn1cc[n+](C)c1.N#CN=C=[N-] , report its activity coefficient.
## Output 139

## Input Using the record for CC(C)OC(C)C [diisopropyl ether] + CCn1cc[n+](C)c1.N#CN=C=[N-] , report its activity coefficient.
## Output 32.4

## Input Using the record for CCCCCCCCC [nonane] + CCn1cc[n+](C)c1.N#CN=C=[N-] , report its activity coefficient.
## Output 401

## Input Using the record for c1ccccc1 [benzene] + CCn1cc[n+](C)c1.N#CN=C=[N-] , report its activity coefficient.
## Output 2.56

## Input Using the record for Cc1ccccc1C [1,2-dimethylbenzene] + CCn1cc[n+](C)c1.N#CN=C=[N-] , report its activity coefficient.
## Output 5.75

## Input Using the record for CCC(C)=O [butanone] + CCn1cc[n+](C)c1.N#CN=C=[N-] , report its activity coefficient.
## Output 1.33

## Input Using the record for CC(C)O [propan-2-ol] + CCn1cc[n+](C)c1.N#CN=C=[N-] , report its activity coefficient.
## Output 1.09

## Input Using the record for Cc1ccc(C)cc1 [1,4-dimethylbenzene] + CCn1cc[n+](C)c1.N#CN=C=[N-] , report its activity coefficient.
## Output 6.79

## Input Using the record for C[N+](=O)[O-] [nitromethane] + CCn1cc[n+](C)c1.N#CN=C=[N-] , report its activity coefficient.
## Output 0.63

## Input Using the record for CCCCCCCC [octane] + CCn1cc[n+](C)c1.N#CN=C=[N-] , report its activity coefficient.
## Output 234

## Input Using the record for C1CCCCC1 [cyclohexane] + CCn1cc[n+](C)c1.N#CN=C=[N-] , report its activity coefficient.
## Output 38.7

## Input Using the record for Cc1ccccc1 [toluene] + CCn1cc[n+](C)c1.N#CN=C=[N-] , report its activity coefficient.
## Output 4.21

---

# measurementDescription: activity coefficient (dimensionless); of the first substance listed, at infinite dilution; xn = mol fraction of the nth substance listed
# testConditions: 352.65 K; Liquid; Chromatography; x1 = 0
// assign yes (1) if activity coefficient falls strictly below 0.8, else no (0) (ties count as no (0))

## Input Please determine if C1CCCCCC1 [cycloheptane] + CCCCCC[N+](C)(C)C.O=S(=O)([N-]S(=O)(=O)C(F)(F)F)C(F)(F)F is below 0.8 in terms of activity coefficient.
## Output no (0)

## Input Please determine if C=CCCCC [hex-1-ene] + CCCCCC[N+](C)(C)C.O=S(=O)([N-]S(=O)(=O)C(F)(F)F)C(F)(F)F is below 0.8 in terms of activity coefficient.
## Output no (0)

## Input Please determine if CC1CCCC1 [methylcyclopentane] + CCCCCC[N+](C)(C)C.O=S(=O)([N-]S(=O)(=O)C(F)(F)F)C(F)(F)F is below 0.8 in terms of activity coefficient.
## Output no (0)

## Input Please determine if CO [methanol] + CCCCCC[N+](C)(C)C.O=S(=O)([N-]S(=O)(=O)C(F)(F)F)C(F)(F)F is below 0.8 in terms of activity coefficient.
## Output no (0)

## Input Please determine if c1ccccc1 [benzene] + CCCCCC[N+](C)(C)C.O=S(=O)([N-]S(=O)(=O)C(F)(F)F)C(F)(F)F is below 0.8 in terms of activity coefficient.
## Output no (0)

## Input Please determine if C#CCCCCC [1-heptyne] + CCCCCC[N+](C)(C)C.O=S(=O)([N-]S(=O)(=O)C(F)(F)F)C(F)(F)F is below 0.8 in terms of activity coefficient.
## Output no (0)

## Input Please determine if CCCCCCCCCC [decane] + CCCCCC[N+](C)(C)C.O=S(=O)([N-]S(=O)(=O)C(F)(F)F)C(F)(F)F is below 0.8 in terms of activity coefficient.
## Output no (0)

## Input Please determine if CCCC=O [butanal] + CCCCCC[N+](C)(C)C.O=S(=O)([N-]S(=O)(=O)C(F)(F)F)C(F)(F)F is below 0.8 in terms of activity coefficient.
## Output yes (1)

## Input Please determine if C=O [methanal] + CCCCCC[N+](C)(C)C.O=S(=O)([N-]S(=O)(=O)C(F)(F)F)C(F)(F)F is below 0.8 in terms of activity coefficient.
## Output yes (1)

## Input Please determine if CCCC(C)=O [pentan-2-one] + CCCCCC[N+](C)(C)C.O=S(=O)([N-]S(=O)(=O)C(F)(F)F)C(F)(F)F is below 0.8 in terms of activity coefficient.
## Output yes (1)

## Input Please determine if CCCCCCCC [octane] + CCCCCC[N+](C)(C)C.O=S(=O)([N-]S(=O)(=O)C(F)(F)F)C(F)(F)F is below 0.8 in terms of activity coefficient.
## Output no (0)

## Input Please determine if CC(C)CC(C)(C)C [2,2,4-trimethylpentane] + CCCCCC[N+](C)(C)C.O=S(=O)([N-]S(=O)(=O)C(F)(F)F)C(F)(F)F is below 0.8 in terms of activity coefficient.
## Output no (0)

## Input Please determine if CCCCCCCCCCC [undecane] + CCCCCC[N+](C)(C)C.O=S(=O)([N-]S(=O)(=O)C(F)(F)F)C(F)(F)F is below 0.8 in terms of activity coefficient.
## Output no (0)

## Input Please determine if CCOC(C)=O [ethyl acetate] + CCCCCC[N+](C)(C)C.O=S(=O)([N-]S(=O)(=O)C(F)(F)F)C(F)(F)F is below 0.8 in terms of activity coefficient.
## Output yes (1)

## Input Please determine if ClC(Cl)(Cl)Cl [tetrachloromethane] + CCCCCC[N+](C)(C)C.O=S(=O)([N-]S(=O)(=O)C(F)(F)F)C(F)(F)F is below 0.8 in terms of activity coefficient.
## Output no (0)

## Input Please determine if CCC[N+](=O)[O-] [1-nitropropane] + CCCCCC[N+](C)(C)C.O=S(=O)([N-]S(=O)(=O)C(F)(F)F)C(F)(F)F is below 0.8 in terms of activity coefficient.
## Output yes (1)

## Input Please determine if C1CCCCC1 [cyclohexane] + CCCCCC[N+](C)(C)C.O=S(=O)([N-]S(=O)(=O)C(F)(F)F)C(F)(F)F is below 0.8 in terms of activity coefficient.
## Output no (0)

## Input Please determine if CCCCCCCCC [nonane] + CCCCCC[N+](C)(C)C.O=S(=O)([N-]S(=O)(=O)C(F)(F)F)C(F)(F)F is below 0.8 in terms of activity coefficient.
## Output no (0)

## Input Please determine if Cc1ccccc1 [toluene] + CCCCCC[N+](C)(C)C.O=S(=O)([N-]S(=O)(=O)C(F)(F)F)C(F)(F)F is below 0.8 in terms of activity coefficient.
## Output no (0)

## Input Please determine if CCO [ethanol] + CCCCCC[N+](C)(C)C.O=S(=O)([N-]S(=O)(=O)C(F)(F)F)C(F)(F)F is below 0.8 in terms of activity coefficient.
## Output no (0)

## Input Please determine if OCC(F)(F)F [2,2,2-trifluoroethanol] + CCCCCC[N+](C)(C)C.O=S(=O)([N-]S(=O)(=O)C(F)(F)F)C(F)(F)F is below 0.8 in terms of activity coefficient.
## Output yes (1)

## Input Please determine if CCC=O [propanal] + CCCCCC[N+](C)(C)C.O=S(=O)([N-]S(=O)(=O)C(F)(F)F)C(F)(F)F is below 0.8 in terms of activity coefficient.
## Output yes (1)

## Input Please determine if Cc1ccccc1C [1,2-dimethylbenzene] + CCCCCC[N+](C)(C)C.O=S(=O)([N-]S(=O)(=O)C(F)(F)F)C(F)(F)F is below 0.8 in terms of activity coefficient.
## Output no (0)

## Input Please determine if CC(C)OC(C)C [diisopropyl ether] + CCCCCC[N+](C)(C)C.O=S(=O)([N-]S(=O)(=O)C(F)(F)F)C(F)(F)F is below 0.8 in terms of activity coefficient.
## Output no (0)

## Input Please determine if CCCCCC [hexane] + CCCCCC[N+](C)(C)C.O=S(=O)([N-]S(=O)(=O)C(F)(F)F)C(F)(F)F is below 0.8 in terms of activity coefficient.
## Output no (0)

## Input Please determine if C#CCCCC [1-hexyne] + CCCCCC[N+](C)(C)C.O=S(=O)([N-]S(=O)(=O)C(F)(F)F)C(F)(F)F is below 0.8 in terms of activity coefficient.
## Output no (0)

## Input Please determine if CCCO [propan-1-ol] + CCCCCC[N+](C)(C)C.O=S(=O)([N-]S(=O)(=O)C(F)(F)F)C(F)(F)F is below 0.8 in terms of activity coefficient.
## Output no (0)

## Input Please determine if CCC(=O)CC [pentan-3-one] + CCCCCC[N+](C)(C)C.O=S(=O)([N-]S(=O)(=O)C(F)(F)F)C(F)(F)F is below 0.8 in terms of activity coefficient.
## Output yes (1)

Data provenance is the NIST ThermoML archive (doi:10.1021/je9003178).
